This collection of values is drawn from the supplement of paper PMC10567573.

B1: COX4I1 (parent)
chain: FDKEWVAKQTKRMLDMKVNPIQGL

Variants of: B1
assay-comment: protein stability index of a GFP-peptide fusion (GPS, HEK-293T) (PSI 1-6); higher = more stable;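 note: lentivirally expressed fusions sorted by FACS into six bins by GFP to DsRed ratio, PSI derived from sequencing read proportions per bin multiplied by bin number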
run-conditions: c terminus: a fixed tail appended
measured-metric: protein stability index
// return just the number, without any unit appended

>  <residues>
FDKEWVAKQTKRMLDIKVNPIQGL [M16I]

>  <measured-metric>
protein stability index

>  <val>
2.1

$$$$

IN: I would be grateful if you could share the reported protein stability index for FDKQWVAKQTKRMLDMKVNPIQGL [E4Q] .
OUT: 1.53

IN: Look up protein stability index: FDKEWVAKQTKRPLDMKVNPIQGL [M13P]
OUT: 2.35

IN: Look up protein stability index: FDKPWVAKQTKRMLDMKVNPIQGL [E4P]
OUT: 1.66

IN: Field request: protein stability index | item: FYKEWVAKQTKRMLDMKVNPIQGL [D2Y]
OUT: 1.76

IN: I have this variant here, FDKEWVAKQTKRELDMKVNPIQGL [M13E] , and I need its recorded protein stability index.
OUT: 2.06

IN: Please look up its protein stability index: FDTEWVAKQTKRMLDMKVNPIQGL [K3T]
OUT: 2.1

IN: May I ask what protein stability index has been recorded for FDKEWVAKQVKRMLDMKVNPIQGL [T10V] ?
OUT: 1.49

IN: protein stability index for FDKEWQAKQTKRMLDMKVNPIQGL [V6Q] ?
OUT: 2.83
